test system: FHC; assay: Cytotoxicity against human FHC cells assessed as reduction in cell viability measured after 48 hrs by AlamarBlue assay; type: cell-based
Endpoint: CC50 (µM)

[[record]]
structure_smiles_string = "Nc1ccc(S(=O)(=O)Nc2ccc(-c3nc4cc(NS(=O)(=O)c5ccc(N)cc5)ccc4o3)cc2)cc1"
tested_system = "FHC"
bound_operator = "="
observed = 65

[[record]]
structure_smiles_string = "O=C(Nc1ccc(Sc2nc3ccccc3s2)cc1)c1cccc(Br)c1O"
tested_system = "FHC"
bound_operator = "="
observed = 59

[[record]]
structure_smiles_string = "COc1ccccc1S(=O)(=O)Nc1ccc(-c2nc3cc(NS(=O)(=O)c4ccccc4OC)ccc3o2)cc1"
tested_system = "FHC"
bound_operator = "="
observed = 74

[[record]]
structure_smiles_string = "O=C(Nc1ccc(Sc2nc3ccccc3s2)cc1)c1cc(Br)cc(Br)c1O"
tested_system = "FHC"
bound_operator = "="
observed = 74

[[record]]
structure_smiles_string = "O=S(=O)(Nc1ccc(-c2nc3cc(NS(=O)(=O)c4ccccc4Cl)ccc3o2)cc1)c1ccccc1Cl"
tested_system = "FHC"
bound_operator = "="
observed = 45

[[record]]
structure_smiles_string = "O=S(=O)(Nc1ccc(-c2nc3cc(NS(=O)(=O)c4ccc(C(F)(F)F)cc4)ccc3o2)cc1)c1ccc(C(F)(F)F)cc1"
tested_system = "FHC"
bound_operator = "="
observed = 57

[[record]]
structure_smiles_string = "COc1ccc(S(=O)(=O)Nc2ccc3oc(-c4ccc(NC(=O)c5cccc(C)c5[N+](=O)[O-])cc4)nc3c2)cc1"
tested_system = "FHC"
bound_operator = ">"
observed = 100

[[record]]
structure_smiles_string = "COc1ccc(S(=O)(=O)Nc2ccc3oc(-c4ccc(NC(=O)C5CCN(C(C)=O)CC5)cc4)nc3c2)cc1"
tested_system = "FHC"
bound_operator = ">"
observed = 100


----------
Listing of entries alongside the reported log10(IC50).
biological target: E. coli GroEL/ES (Escherichia coli); test: Inhibition of Escherichia coli GroEL/ES-mediated refolding of the denatured malate dehydrogenase; type: protein-complex assay
Sequence (P0A6F5 whole entry, looked up): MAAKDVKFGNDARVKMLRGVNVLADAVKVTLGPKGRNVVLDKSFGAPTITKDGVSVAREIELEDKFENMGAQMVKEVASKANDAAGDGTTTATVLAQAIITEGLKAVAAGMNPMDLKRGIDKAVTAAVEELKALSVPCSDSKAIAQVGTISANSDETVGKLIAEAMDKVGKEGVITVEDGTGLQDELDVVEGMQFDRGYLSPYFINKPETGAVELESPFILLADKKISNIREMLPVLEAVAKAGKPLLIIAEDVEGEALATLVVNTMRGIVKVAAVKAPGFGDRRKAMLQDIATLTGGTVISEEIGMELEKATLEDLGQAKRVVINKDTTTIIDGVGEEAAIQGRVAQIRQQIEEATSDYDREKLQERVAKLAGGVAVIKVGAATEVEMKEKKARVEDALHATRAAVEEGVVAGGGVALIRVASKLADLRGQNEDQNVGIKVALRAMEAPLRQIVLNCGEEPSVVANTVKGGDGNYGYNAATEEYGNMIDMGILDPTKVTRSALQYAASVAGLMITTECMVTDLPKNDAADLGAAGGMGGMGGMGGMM
Endpoint: log10(IC50) (log10 of the value in µM)

[[record]]
structure_smiles_string = "O=C(Nc1ccc(Sc2nc3ccccc3s2)c(Cl)c1)c1cccc(Br)c1O"
observed = 1.00

[[record]]
structure_smiles_string = "COc1ccc(S(=O)(=O)Nc2ccc3oc(-c4ccc(NC(=O)C5CCN(C(C)=O)CC5)cc4)nc3c2)cc1"
observed = 1.58

[[record]]
structure_smiles_string = "Cc1ccc(S(=O)(=O)Nc2ccc(-c3nc4cc(NS(=O)(=O)c5ccc(C)cc5)ccc4o3)cc2)cc1"
observed = 1.43

[[record]]
structure_smiles_string = "O=S(=O)(Nc1ccc(-c2nc3cc(NS(=O)(=O)c4ccc(Cl)s4)ccc3o2)cc1)c1ccc(Cl)s1"
observed = 0.45

[[record]]
structure_smiles_string = "O=S(=O)(Nc1ccc(-c2nc3cc(NS(=O)(=O)c4cccc5ccccc45)ccc3o2)cc1)c1cccc2ccccc12"
observed = 1.63

[[record]]
structure_smiles_string = "O=S(=O)(Nc1ccc(-c2nc3cc(NS(=O)(=O)c4cccc(C(F)(F)F)c4)ccc3o2)cc1)c1cccc(C(F)(F)F)c1"
observed = 1.15

[[record]]
structure_smiles_string = "COc1ccc(S(=O)(=O)Nc2ccc3oc(-c4ccc(NC(=O)c5ccc(Cl)s5)cc4)nc3c2)cc1"
observed = 1.26

[[record]]
structure_smiles_string = "COc1ccccc1S(=O)(=O)Nc1ccc(-c2nc3cc(NS(=O)(=O)c4ccccc4OC)ccc3o2)cc1"
observed = 1.63


----------
target: E. coli GroEL/ES (Escherichia coli); experiment: Inhibition of Escherichia coli GroEL/ES-mediated refolding of the denatured rhodanese; type: protein-complex assay
Endpoint: log10(IC50) (log10 of the value in µM)

[[record]]
structure_smiles_string = "O=S(=O)(Nc1ccc(-c2nc3cc(NS(=O)(=O)c4ccc(Cl)s4)ccc3o2)cc1)c1ccc(Cl)c(C(F)(F)F)c1"
observed = 0.92

[[record]]
structure_smiles_string = "O=S(=O)(Nc1ccc(-c2nc3cc(NS(=O)(=O)c4ccc(C(F)(F)F)cc4)ccc3o2)cc1)c1ccc(C(F)(F)F)cc1"
observed = 1.53

[[record]]
structure_smiles_string = "O=C(Nc1ccc(Sc2nc3ccccc3s2)c(Cl)c1)c1cccc(Br)c1O"
observed = 0.77

[[record]]
structure_smiles_string = "COc1ccc(S(=O)(=O)Nc2ccc3oc(-c4ccc(NS(=O)(=O)c5cc(Br)ccc5OC)cc4)nc3c2)cc1"
observed = 1.34

[[record]]
structure_smiles_string = "Cc1ccc(S(=O)(=O)Nc2ccc(-c3nc4ccc(NS(=O)(=O)c5ccc(C)cc5)cc4[nH]3)cc2)cc1"
observed = 1.66

[[record]]
structure_smiles_string = "O=S(=O)(Nc1ccc(-c2nc3cc(NS(=O)(=O)c4ccccc4)ccc3o2)cc1)c1ccccc1"
observed = 1.26

[[record]]
structure_smiles_string = "COc1c(Br)cccc1C(=O)Nc1ccc(Sc2nc3ccccc3s2)c(Cl)c1"
observed = 1.20

[[record]]
structure_smiles_string = "O=C(Nc1ccc(Sc2nc3ccccc3s2)cc1)c1cc(Br)cc(Br)c1O"
observed = 0.34

[[record]]
structure_smiles_string = "COc1ccc(S(=O)(=O)Nc2ccc3oc(-c4ccc(NC(=O)c5cccc(C)c5[N+](=O)[O-])cc4)nc3c2)cc1"
observed = 1.45

[[record]]
structure_smiles_string = "COc1ccc(S(=O)(=O)Nc2ccc3oc(-c4ccc(NC(=O)C5CCN(C(C)=O)CC5)cc4)nc3c2)cc1"
observed = 1.79

[[record]]
structure_smiles_string = "O=S(=O)(Nc1ccc(-c2nc3cc(NS(=O)(=O)c4cccc5ccccc45)ccc3o2)cc1)c1cccc2ccccc12"
observed = 1.54

[[record]]
structure_smiles_string = "O=C(Nc1ccc(Sc2nc3ccccc3s2)cc1)c1cccc(Br)c1O"
observed = 1.57

[[record]]
structure_smiles_string = "O=S(=O)(Nc1ccc(-c2nc3cc(NS(=O)(=O)c4ccccc4Cl)ccc3o2)cc1)c1ccccc1Cl"
observed = 1.63

[[record]]
structure_smiles_string = "Cc1ccc(S(=O)(=O)Nc2ccc(-c3nc4cc(NS(=O)(=O)c5ccc(C)cc5)ccc4o3)cc2)cc1"
observed = 1.48

[[record]]
structure_smiles_string = "COc1ccc(S(=O)(=O)Nc2ccc(-c3nc4cc(NS(=O)(=O)c5ccc(OC)cc5)ccc4o3)cc2)cc1"
observed = 1.75

[[record]]
structure_smiles_string = "O=S(=O)(Nc1ccc(-c2nc3cc(NS(=O)(=O)c4ccc(Br)cc4)ccc3o2)cc1)c1ccc(Br)cc1"
observed = 1.53

[[record]]
structure_smiles_string = "COc1ccc(S(=O)(=O)Nc2ccc3oc(-c4ccc(NC(=O)c5ccc(Cl)s5)cc4)nc3c2)cc1"
observed = 1.18

[[record]]
structure_smiles_string = "COc1ccc(S(=O)(=O)Nc2ccc3oc(-c4ccc(NS(=O)(=O)c5cc(F)ccc5OC)cc4)nc3c2)cc1"
observed = 1.48

[[record]]
structure_smiles_string = "Nc1ccc(S(=O)(=O)Nc2ccc(-c3nc4cc(NS(=O)(=O)c5ccc(N)cc5)ccc4o3)cc2)cc1"
observed = 0.49

[[record]]
structure_smiles_string = "COc1ccccc1S(=O)(=O)Nc1ccc(-c2nc3cc(NS(=O)(=O)c4ccccc4OC)ccc3o2)cc1"
observed = 1.52

[[record]]
structure_smiles_string = "O=S(=O)(Nc1ccc(-c2nc3cc(NS(=O)(=O)c4ccc(F)cc4)ccc3o2)cc1)c1ccc(F)cc1"
observed = 1.28


----------
system: HEK293; assay: Cytotoxicity against human HEK293 cells assessed as reduction in cell viability measured after 48 hrs by AlamarBlue assay; format: cell-based; conditions: hek293, 48 h
Binary label based on CC50 with cut-off 20 µM: below gives Yes, not below gives No.

[[record]]
structure_smiles_string = "COc1ccc(S(=O)(=O)Nc2ccc3oc(-c4ccc(NC(=O)c5ccc(Cl)s5)cc4)nc3c2)cc1"
assigned_category = "Yes"

[[record]]
structure_smiles_string = "COc1ccc(S(=O)(=O)Nc2ccc3oc(-c4ccc(NS(=O)(=O)c5cc(Br)ccc5OC)cc4)nc3c2)cc1"
assigned_category = "Yes"

[[record]]
structure_smiles_string = "COc1ccc(S(=O)(=O)Nc2ccc3oc(-c4ccc(NC(=O)c5cccc(C)c5[N+](=O)[O-])cc4)nc3c2)cc1"
assigned_category = "Yes"

[[record]]
structure_smiles_string = "COc1ccc(S(=O)(=O)Nc2ccc3oc(-c4ccc(NC(=O)C5CCN(C(C)=O)CC5)cc4)nc3c2)cc1"
assigned_category = "No"

[[record]]
structure_smiles_string = "COc1ccc(S(=O)(=O)Nc2ccc3oc(-c4ccc(NS(=O)(=O)c5cc(F)ccc5OC)cc4)nc3c2)cc1"
assigned_category = "No"


----------
assay: Cytotoxicity against human HEK293 cells assessed as reduction in cell viability measured after 48 hrs by AlamarBlue assay; assay type: cell-based; conditions: HEK293 cells
Listing of entries alongside the reported CC50 at 48 h.
Endpoint: CC50 at 48 h (µM)

[[record]]
structure_smiles_string = "Nc1ccc(S(=O)(=O)Nc2ccc(-c3nc4cc(NS(=O)(=O)c5ccc(N)cc5)ccc4o3)cc2)cc1"
bound_operator = "="
observed = 63

[[record]]
structure_smiles_string = "O=S(=O)(Nc1ccc(-c2nc3cc(NS(=O)(=O)c4ccc(F)cc4)ccc3o2)cc1)c1ccc(F)cc1"
bound_operator = "="
observed = 31

[[record]]
structure_smiles_string = "O=S(=O)(Nc1ccc(-c2nc3cc(NS(=O)(=O)c4ccccc4Cl)ccc3o2)cc1)c1ccccc1Cl"
bound_operator = "="
observed = 46

[[record]]
structure_smiles_string = "O=S(=O)(Nc1ccc(-c2nc3cc(NS(=O)(=O)c4cccc(C(F)(F)F)c4)ccc3o2)cc1)c1cccc(C(F)(F)F)c1"
bound_operator = "="
observed = 23

[[record]]
structure_smiles_string = "O=C(Nc1ccc(Sc2nc3ccccc3s2)cc1)c1cc(Br)cc(Br)c1O"
bound_operator = "="
observed = 69

[[record]]
structure_smiles_string = "Cc1ccc(S(=O)(=O)Nc2ccc(-c3nc4cc(NS(=O)(=O)c5ccc(C)cc5)ccc4o3)cc2)cc1"
bound_operator = "="
observed = 32

[[record]]
structure_smiles_string = "O=S(=O)(Nc1ccc(-c2nc3cc(NS(=O)(=O)c4cccc5ccccc45)ccc3o2)cc1)c1cccc2ccccc12"
bound_operator = ">"
observed = 100

[[record]]
structure_smiles_string = "COc1ccc(S(=O)(=O)Nc2ccc(-c3nc4cc(NS(=O)(=O)c5ccc(OC)cc5)ccc4o3)cc2)cc1"
bound_operator = "="
observed = 48

[[record]]
structure_smiles_string = "O=S(=O)(Nc1ccc(-c2nc3cc(NS(=O)(=O)c4ccc(Cl)s4)ccc3o2)cc1)c1ccc(Cl)c(C(F)(F)F)c1"
bound_operator = "="
observed = 34

[[record]]
structure_smiles_string = "O=S(=O)(Nc1ccc(-c2nc3cc(NS(=O)(=O)c4ccc(C(F)(F)F)cc4)ccc3o2)cc1)c1ccc(C(F)(F)F)cc1"
bound_operator = "="
observed = 29

